target: V2 Recepter (rat kidney plasma membrane preparations) (Rattus norvegicus, UniProt Q00788); construct: rat kidney plasma membrane preparations; experiment: V2 Recepter binding assay; details: [3H]-Arg-vasopressin 4×10^-10 M, 4° C., pH 8.0, rat kidney plasma membrane
Sequence (Q00788 whole entry): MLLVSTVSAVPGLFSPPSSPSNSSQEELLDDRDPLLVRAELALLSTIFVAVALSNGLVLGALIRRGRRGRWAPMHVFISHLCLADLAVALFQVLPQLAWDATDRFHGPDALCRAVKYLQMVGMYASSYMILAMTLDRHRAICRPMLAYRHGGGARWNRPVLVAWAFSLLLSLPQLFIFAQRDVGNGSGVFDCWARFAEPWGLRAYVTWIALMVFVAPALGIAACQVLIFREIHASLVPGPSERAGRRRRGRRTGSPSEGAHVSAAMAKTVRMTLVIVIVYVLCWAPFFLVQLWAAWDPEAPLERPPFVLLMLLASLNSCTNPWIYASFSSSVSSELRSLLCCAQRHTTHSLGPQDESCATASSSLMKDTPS
Measured IC50 accompanies every entry in the list below.
Respond with the bare value in nM.

Solved cases (2 shown):
Exercise: # query: IC50 of entry COc1cc(NC(=O)c2ccccc2Cl)ccc1C(=O)N1CCCC(CC(=O)NCCc2cccn2C)c2cc(Cl)ccc21 (stereo not drawn) [Example 154]
Key: 12

Exercise: Which value of IC50 has been reported for CCN1CCN(C(=O)COC2CCCN(C(=O)c3ccc(N4CCc5ccccc5C4=O)cc3)c3ccc(Cl)cc32)CC1 (stereo not drawn) [Example 128] in the records?
Key: 13

Alright, here's another compound for you.
Exercise: Requested field: IC50. Item: COc1cc(NC(=O)c2ccccc2Cl)ccc1C(=O)N1CCCC(OCCSc2ncc[nH]2)c2cc(Cl)ccc21 (stereo not drawn) [Example 141]
Key: 7.6
